IC50: recorded values
Molecular target: PD-1/PD-L1 interaction (PD-1-Ig / PD-L1-His) (Homo sapiens (Human), UniProt Q9NZQ7)
Sequence (Q9NZQ7 other isoform, or with tags, fused parts or gaps): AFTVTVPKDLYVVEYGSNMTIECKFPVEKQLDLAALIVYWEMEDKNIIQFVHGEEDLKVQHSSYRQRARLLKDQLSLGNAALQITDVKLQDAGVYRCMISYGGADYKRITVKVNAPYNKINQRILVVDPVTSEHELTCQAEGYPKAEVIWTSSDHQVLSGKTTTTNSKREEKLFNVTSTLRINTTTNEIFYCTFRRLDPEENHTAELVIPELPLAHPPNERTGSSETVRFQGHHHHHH
Assay: PD-1/PD-L1 Homogenous Time-Resolved Fluorescence (HTRF) binding assay
Conditions: PD-1/PD-L1 HTRF binding assay; value given as range class; read-out: Range or IC50

# compound, IC50
rows = [
    ("Cc1c(COc2cc(OCc3cccc(C#N)c3)c(CN[C@H](Cc3cscn3)C(=O)O)cc2Cl)cccc1-c1ccc2c(c1)OCCO2", "0.6 to 10 nM"),
    ("Cc1c(COc2cc(OCc3cccc(C#N)c3)c(CN3CCc4nc[nH]c4C3C(=O)O)cc2Cl)cccc1-c1ccc2c(c1)OCCO2 (stereo not shown)", "10 to 100 nM"),
    ("CC(=O)NCCNCc1ccc(OCc2cccc(-c3ccccc3)c2C)cc1OCc1cccc(C(F)(F)F)c1", "100 to 20000 nM"),
    ("Cc1c(COc2ccc(CN[C@H](CO)C(=O)O)c(OCc3cncc(C#N)c3)c2)cccc1-c1ccccc1", "0.6 to 10 nM"),
]

Values from patent US9850225B2
